Biological target: Mitogen-activated protein kinase kinase kinase 2 (Homo sapiens) (UniProt Q9Y2U5)
Experiment: modulators of MEK5 binding to wildtype MEKK2, primary screen, biochemical, multiplex bead flow cytometry, Alexa488-MEK5 (AID 1531)
Details: Alexa488-MEK5 binding to MEKK2 WT, at 10 µM, actives lie on both sides
The whole screen tested about 290,000 compounds, of which about 3,300 (1.1%) were called active. Rule as the data show it: active = binding response below about 67% or above about 130%; inconclusive = no clear call, values can overlap the other calls; inactive = in between. Only a selection was taken, and actives are over-represented in it overall.
Outcomes: class 1 = active, class 0 = inactive

| Compound | Assayed system | Label |
| --- | --- | --- |
| CCN(CC)CCOCCOc1ccc(Cl)c2ccccc12 | Mitogen-activated protein kinase kinase kinase 2 (Homo sapiens) (UniProt Q9Y2U5) | class 1 |
| C=CC1=C(C(=O)O)N2C(=O)[C@@H](NC(=O)/C(=N/OCC(=O)O)c3csc(N)n3)[C@H]2SC1 | Mitogen-activated protein kinase kinase kinase 2 (Homo sapiens) (UniProt Q9Y2U5) | class 0 |
| Cc1ccc(NC(=S)N(CCN2CCCCC2)Cc2ccco2)cc1C | Mitogen-activated protein kinase kinase kinase 2 (Homo sapiens) (UniProt Q9Y2U5) | class 0 |
| CCC(C(=O)OCCN(CC)CC)c1ccccc1 (stereo unspecified) | Mitogen-activated protein kinase kinase kinase 2 (Homo sapiens) (UniProt Q9Y2U5) | class 0 |
| Cc1ccc(NC(=S)N(CCCN2CCC(C)CC2)Cc2ccco2)cc1 | Mitogen-activated protein kinase kinase kinase 2 (Homo sapiens) (UniProt Q9Y2U5) | class 0 |
| Cc1ccc(C)c(OCc2cc(C(=O)N3CCN(c4cnccn4)CC3)no2)c1 | Mitogen-activated protein kinase kinase kinase 2 (Homo sapiens) (UniProt Q9Y2U5) | class 0 |
